Ref: ChEMBL document CHEMBL1145312

organism: Rattus norvegicus; experiment: Inhibition of LPS-induced TNFalpha release in rat; format: functional
measuredAttribute: ED50 (mg/kg)
Give just the number in mg/kg; leave the unit off.

CC(C)(C)c1nnc2ccc(-c3ocnc3-c3cc(F)c(F)cc3F)cn12; 0.1

INPUT: Quick one: ED50 for "CC(C)c1nnc2ccc(-c3ocnc3-c3cc(F)ccc3F)cn12" ?
OUTPUT: 0.3

INPUT: Now the compound "CC(C)c1nnc2ccc(-c3ocnc3-c3cccc(Cl)c3)cn12"
OUTPUT: 2.4

INPUT: Now the compound "CC(C)c1nnc2ccc(-c3ocnc3-c3ccc(F)c(Cl)c3)cn12"
OUTPUT: 0.5
